Test: qHTS for Inhibitors of the Functional Ribonucleoprotein Complex (vRNP) of Lassa (LASV) Arenavirus: Viability assay - alamar blue signal for LASV Primary Screen (AID 1347083); further: nearly all actives have a fitted effect of over 80% in size
Conditions: cell viability, alamar blue fluorescence (LASV minigenome counter-screen); series mostly up to 57.5 µM
Inconclusive results are not listed. Activity calls are given as the source filed them. The call rests on the fitted dose curve; tested in HEK293 reporter line.
Your reply should match one of these outcome classes. yes (1) for active, no (0) for inactive

As a guide, the following entries are already answered.
| Compound | Assigned Label |
| --- | --- |
| COc1cc(=O)n(C)c2c(OCC3OC(C)(C)OC3(C)C)cccc12 (centres undefined) | no (0) |
| O=C(/C=C/c1ccc(O)cc1)OCc1occc(=O)c1O[C@@H]1OC(CO)[C@@H](O)[C@H](O)[C@@H]1O (some centres undefined) | no (0) |

Task item: // return assay outcome for CC(C)N(CCCNC(=O)Nc1ccc(C(C)(C)C)cc1)C[C@H]1O[C@@H](n2cc(Br)c3c(N)ncnc32)[C@H](O)[C@H]1O
Reply: no (0)

Task item: // return assay outcome for COc1ccc(-c2coc3cc(OC)ccc3c2=O)cc1
Reply: no (0)

Task item: // return assay outcome for CC1(C)C=C2[C@H]3CC[C@@H]4[C@@]5(C)CCC(=O)C(C)(C)[C@@H]5CC[C@@]4(C)[C@]3(C)CC[C@@]2(C(=O)O)CC1
Reply: no (0)

Task item: // return assay outcome for Cn1cc(-c2ccc3ncc(Cc4ccc5ncccc5c4)n3n2)cn1
Reply: no (0)

Task item: // return assay outcome for C[N+]1([O-])[C@@H]2Cc3cc4c(cc3[C@@H]1Cc1cc3c(cc12)OCO3)OCO4 (some centres undefined)
Reply: no (0)

Task item: // return assay outcome for O=CN1CCCCC1
Reply: no (0)

Task item: // return assay outcome for C[C@H](O)[C@@H]1C(=O)N2C(C(=O)O)=C(S[C@@H]3CN[C@H](CNS(N)(=O)=O)C3)[C@@H](C)[C@@H]12
Reply: no (0)

Task item: // return assay outcome for O=C(/C=C/c1ccc(O)c(O)c1)O[C@@H]1C[C@](O)(C(=O)O)C[C@@H](O)[C@H]1O
Reply: no (0)

Task item: // return assay outcome for COc1c2ccoc2cc2oc(=O)ccc12
Reply: no (0)

Task item: // return assay outcome for CCN1C(=O)C=CC1=O
Reply: no (0)

----------
Biological target: Glucocorticoid receptor (Homo sapiens)
Test: GR-EFC Redistribution (AID 451); further: potency means the concentration at half of the fitted maximal effect
Settings: CHO-K1 GR-EFC translocation, beta-gal luminescence, 2 h
Experimental: NIH Molecular Libraries Screening Centers Network [MLSCN] NIH Chemical Genomics Center [NCGC] The glucocorticoid receptor (GR) is a cytoplasmic receptor that belongs to the nuclear receptor family of ligand-dependent transcription factors. […] GR-translocation was measured beta-gal enzyme activity using the PathHunter Detection Kit containing cell membrane permeablizing reagent and beta-gal substrate (DiscoveRx, Fremont, CA). […] Read plate in luminescence mode in ViewLux plate reader (PerkinElmer) […]
Calls of active or inactive are those of the source. The call rests on the fitted dose curve.
Experimental Readout: Potency

Record excerpt, results attached:
| Compound | Potency |
| --- | --- |
| S=C=Nc1cccc(C2(N3CCCCC3)CCCCC2)c1 | > 46 µM (inactive) |
| Cc1o[nH]c(=O)c1C[C@H](N)C(=O)O | > 46 µM (inactive) |
| O=C1Nc2cc(Cl)c(Cl)cc2N2CCNC[C@H]12 | > 46 µM (inactive) |
| CC[C@H](Oc1ccc(Cl)cc1)C(=O)OC1C[C@H]2CC[C@@H](C1)N2C (stereo partly specified) | > 46 µM (inactive) |
| CC(C)(O)[C@H]1O[C@@H]2CC[C@]3(C)[C@@]4(C)c5[nH]c6ccccc6c5C[C@@H]4CC[C@]3(O)C2=CC1=O | > 46 µM (inactive) |
| C=C(C)[C@H]1CN[C@H](C(=O)O)[C@@H]1CC(=O)O | > 46 µM (inactive) |
| CC(C)[C@@H]1CN[C@H](C(=O)O)[C@@H]1CC(=O)O | > 46 µM (inactive) |
| O=C(/C=C\c1ccc(Cl)cc1)N[C@@]12CCC(=O)[C@@H]3Oc4c(O)ccc5c4[C@@]31CCN(CC1CC1)[C@@H]2C5 | > 46 µM (inactive) |
| Cc1ccc(C[N+](C)(C)C)o1 | > 46 µM (inactive) |
| CC[C@@H](CO)NC(=O)[C@H]1C=C2c3cccc4[nH]cc(c34)C[C@H]2N(C)C1 | > 46 µM (inactive) |

Now consider the entry below.
Task item: Any idea what Potency was measured for N[C@@H](CCCCP(=O)(O)O)C(=O)O ?
Reply: > 46 µM (inactive)

----------
Assay: qHTS for Inhibitors of the Functional Ribonucleoprotein Complex (vRNP) of Lassa (LASV) Arenavirus: Viability assay - alamar blue signal for LASV Primary Screen (AID 1347083); further: nearly all actives have a fitted effect of over 80% in size
Details: cell viability, alamar blue fluorescence (LASV minigenome counter-screen); series mostly up to 57.5 µM
Inconclusive results are not listed. The source made the active and inactive calls. Calls come from the whole dose curve; tested in HEK293 reporter line.
Your reply should match one of these outcome classes. active, inactive

As a guide, the following entries are already answered.
| Compound | Assigned Label |
| --- | --- |
| CCCCCCCCCCCCCCCCCCCCCCCCCCCCCC | inactive |
| O=C1CN2Cc3c(ccc(Cl)c3Cl)N=C2N1 | inactive |
| CC(=O)C1CCC2(O)C3CCC4=CC(=O)CCC4(C)C3CCC12C (stereo not given) | inactive |
| CC(C)=CCC[C@](C)(O[C@@H]1O[C@H](CO[C@@H]2OC[C@H](O[C@@H]3OC[C@@H](O)[C@H](O)[C@H]3O)[C@H](O)[C@H]2O)[C@@H](O)[C@H](O)[C@H]1O)C1CC[C@]2(C)C1[C@H](O)CC1[C@@]3(C)CC[C@H](O)C(C)(C)C3[C@@H](O)C[C@]12C (stereo not given in full) | inactive |

Task item: // return assay outcome for COc1ccc(C(C)=O)cc1
Reply: inactive

Task item: // return assay outcome for C[C@@H]1C(=O)O[C@@H]2CC34[C@H]5C[C@@H](C(C)(C)C)C36[C@H](OC(=O)[C@@H]6O)OC4(C(=O)O5)[C@@]12O (stereo not given in full)
Reply: inactive

Task item: // return assay outcome for O=C(Nc1c(Cl)cncc1Cl)c1ccc(OC(F)F)c(OCC2CC2)c1
Reply: inactive

Task item: // return assay outcome for Nc1ncnc2c1ncn2[C@@H]1O[C@@H](CO)[C@H](O)[C@H]1O
Reply: inactive

Task item: // return assay outcome for O=C(Nc1cccc(Br)c1)c1cccc(S(=O)(=O)N2CCCCCC2)c1
Reply: active

Task item: // return assay outcome for CCN(C(=O)c1c(O)c2c(Cl)cccc2n(C)c1=O)c1ccccc1
Reply: inactive

Task item: // return assay outcome for CC(C)=CCC/C(C)=C/CC/C(C)=C/CO
Reply: inactive

Task item: // return assay outcome for C1CC[C@H]([C@@]23C[C@H](C[C@H]4CCCN[C@H]42)[C@@H]2CCCCN2C3)NC1
Reply: inactive

Task item: // return assay outcome for NCC(O)(CS(=O)(=O)O)c1ccc(Cl)cc1 (stereo not given)
Reply: inactive

Task item: // return assay outcome for Nc1ncnc2c1c(-c1cccc(OCc3ccccc3)c1)cn2C1CC(CN2CCC2)C1 (stereo not given)
Reply: inactive

Task item: // return assay outcome for C/C(=C/CCC(C)[C@H]1CC[C@@]2(C)C3=C(CC[C@]12C)[C@@]1(C)CCC(=O)C(C)(C)[C@@H]1CC3)C(=O)O (stereo not given in full)
Reply: inactive

Task item: // return assay outcome for c1ccc2c(Cc3c[nH]c4ccccc34)c[nH]c2c1
Reply: active

Task item: // return assay outcome for C[C@H](CCC(=O)O)[C@H]1CCC2C3C[C@H](O)[C@@H]4C[C@H](O)CC[C@]4(C)C3CC[C@@]21C (stereo not given in full)
Reply: inactive

Task item: // return assay outcome for Cn1c(CNc2ccc(C(=N)N)cc2)nc2cc(C(=O)N(CCC(=O)O)c3ccccn3)ccc21
Reply: inactive

Task item: // return assay outcome for O=C(O)Cc1cccc(OCCCN(Cc2cccc(C(F)(F)F)c2Cl)CC(c2ccccc2)c2ccccc2)c1
Reply: inactive

Task item: // return assay outcome for Cn1cc(C(=O)OCC2CCN(CCNS(C)(=O)=O)CC2)c2ccccc21
Reply: inactive

----------
Biological target: Nucleoprotein (Lymphocytic choriomeningitis virus (strain Armstrong))
Test: qHTS for Inhibitors of the Functional Ribonucleoprotein Complex (vRNP) of Lymphocytic Choriomeningitis Arenaviruses (LCMV): LCMV Primary Screen - GLuc reporter signal (AID 1347086); further: nearly all actives have a fitted effect of over 70% in size
Settings: LCMV minigenome vRNP cell assay, Gaussia luciferase reporter; series mostly up to 57.5 µM
Records with an inconclusive call do not appear. Activity calls are given as the source filed them. Calls follow the shape of the full dose curve.
Your reply should match one of these outcome classes. active, inactive

| Compound | Assigned Label |
| --- | --- |
| COc1ccc([C@@H]2[C@@H](O)[C@H](O)[C@@H](C)N2C)cc1OC | inactive |

Task item: // return assay outcome for CC(C)COC(=O)c1ccccc1
Reply: inactive

Task item: // return assay outcome for C=CC1CN2CCC1CC2C(O)c1ccnc2ccc(OC)cc12 (stereo unspecified)
Reply: inactive

Task item: // return assay outcome for COc1c2ccoc2c(OCC=C(C)C)c2oc(=O)ccc12
Reply: inactive

Task item: // return assay outcome for COC(=O)c1cc(OC)cc(O)c1C(=O)c1c(O)cc(C)cc1O
Reply: inactive

Task item: // return assay outcome for NC(=O)CC[C@H](N)C(=O)O
Reply: inactive

Task item: // return assay outcome for CS(=O)(=O)c1ccc(-c2cnc(N)c(C(=O)Nc3ccccc3)n2)cc1
Reply: inactive

Task item: // return assay outcome for CC(O)C1C(=O)N2C(C(=O)O)=C(SC3CNC(C(=O)N(C)C)C3)C(C)C12 (stereo unspecified)
Reply: inactive

Task item: // return assay outcome for CCCCC/C=C\CC(O)/C=C/c1cccc(CC(O)CCCCO)n1 (stereo unspecified)
Reply: inactive

Task item: // return assay outcome for CCCCCCCCCCCCCCCC(=O)O[C@H]1[C@@H](O)[C@@H](O)[C@@H]([C@H](NC(=O)[C@@H]2C[C@@H](CCC)CN2C)[C@H](C)Cl)O[C@@H]1SC
Reply: inactive

Task item: // return assay outcome for CC(=O)N(O)CCCP(=O)(O)O
Reply: inactive

Task item: // return assay outcome for CC1=CC2OC3CC4OC(=O)C=CC=CC(C(C)O)OCC(O)C5(C)OC5C(=O)OCC2(CC1O)C4(C)C31CO1 (stereo unspecified)
Reply: inactive

Task item: // return assay outcome for Nc1nc(Nc2ccccc2)nc2c1ncn2[C@@H]1O[C@H](CO)[C@@H](O)[C@H]1O
Reply: inactive

Task item: // return assay outcome for CCCn1c(=O)c2[nH]c(-c3ccc(OCC(=O)NCCN)cc3)nc2n(CCC)c1=O
Reply: inactive

Hello, the source for this data is PubChem BioAssay (NCATS), in case you need it.
